A collection of molecules and their measured IC50
Target: Steroid 17-alpha-hydroxylase/17,20 lyase (Homo sapiens)
Sequence (P05093 whole entry): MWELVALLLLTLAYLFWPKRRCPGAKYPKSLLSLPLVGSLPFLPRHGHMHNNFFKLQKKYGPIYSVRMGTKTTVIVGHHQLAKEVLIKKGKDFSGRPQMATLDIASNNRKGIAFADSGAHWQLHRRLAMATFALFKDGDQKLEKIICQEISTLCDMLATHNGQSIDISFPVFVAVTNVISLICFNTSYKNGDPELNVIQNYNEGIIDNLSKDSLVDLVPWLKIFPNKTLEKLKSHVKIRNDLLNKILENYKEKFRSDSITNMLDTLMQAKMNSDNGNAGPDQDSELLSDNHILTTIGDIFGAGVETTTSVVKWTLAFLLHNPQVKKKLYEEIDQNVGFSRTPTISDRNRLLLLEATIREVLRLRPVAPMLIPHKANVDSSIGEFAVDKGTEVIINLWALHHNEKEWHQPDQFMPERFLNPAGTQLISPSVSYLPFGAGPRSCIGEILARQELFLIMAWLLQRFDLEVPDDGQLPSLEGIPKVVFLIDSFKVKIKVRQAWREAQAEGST
Experiment: Inhibition of human recombinant CYP17 hydroxylase activity by HPLC/MS/MS method
State the answer as a number, implicitly in nM.

Recorded results for 5 molecules are shown here.
• CC(C)C(O)(c1ccc2cc(OCC(F)(F)F)ccc2c1)c1c[nH]nn1 (racemic) = 1000
• CC(C)C(O)(c1ccc2cc(-c3cnco3)ccc2c1)c1c[nH]nn1 (racemic) = 13000
• COc1cc2ccc(C(O)(c3c[nH]nn3)C(C)C)cc2cc1OC (racemic) = 2300
• CC(C)C(O)(c1ccc2cc(-c3cccs3)ccc2c1)c1c[nH]nn1 (racemic) = 13000
• COc1cc2ccc(C(O)(c3c[nH]cn3)C(C)C)cc2cc1OC (racemic) = 220

What measured IC50 goes with CC(C)C(O)(c1ccc2cc(OC(F)F)ccc2c1)c1c[nH]nn1 (racemic) ? 74

How about this molecule: CC(C)C(O)(c1ccc2cc(OCC(F)(F)F)c(OCC(F)(F)F)cc2c1)c1c[nH]nn1 (racemic) 3700

And for CC(C)C(O)(c1ccc2cc(OC(F)F)c(OC(F)F)cc2c1)c1c[nH]nn1 (racemic) ? 690

----------
Tested on: CYP3A4 versus CYP17 lyase
Test: Selectivity ratio of IC50 for human hepatocyte microsome CYP3A4 to IC50 for human recombinant CYP17 lyase activity
Type: ADME, cell-based
Conditions: read-out: Ratio IC50
Consider the following compounds and their measured selectivity ratio readings.
Field format: numeric only.

Use the examples below as a reference point.
• COc1cc2ccc(C(O)(c3c[nH]cn3)C(C)C)cc2cc1OC (racemic) = 32
• COc1cc2ccc(C(O)(c3c[nH]nn3)C(C)C)cc2cc1OC (racemic) = 320
• CC(C)C(O)(c1ccc2cc(OCC(F)(F)F)c(OCC(F)(F)F)cc2c1)c1c[nH]nn1 (racemic) = 80
• CC(C)C(O)(c1ccc2cc(OC(F)F)ccc2c1)c1c[nH]nn1 (racemic) = 42

--- query ---
// returns reported selectivity ratio for input CC(C)C(O)(c1ccc2cc(-c3cnco3)ccc2c1)c1c[nH]nn1 (racemic) 110

----------
Target: Steroid 17-alpha-hydroxylase/17,20 lyase (Rattus norvegicus)
Sequence (P11715 whole entry): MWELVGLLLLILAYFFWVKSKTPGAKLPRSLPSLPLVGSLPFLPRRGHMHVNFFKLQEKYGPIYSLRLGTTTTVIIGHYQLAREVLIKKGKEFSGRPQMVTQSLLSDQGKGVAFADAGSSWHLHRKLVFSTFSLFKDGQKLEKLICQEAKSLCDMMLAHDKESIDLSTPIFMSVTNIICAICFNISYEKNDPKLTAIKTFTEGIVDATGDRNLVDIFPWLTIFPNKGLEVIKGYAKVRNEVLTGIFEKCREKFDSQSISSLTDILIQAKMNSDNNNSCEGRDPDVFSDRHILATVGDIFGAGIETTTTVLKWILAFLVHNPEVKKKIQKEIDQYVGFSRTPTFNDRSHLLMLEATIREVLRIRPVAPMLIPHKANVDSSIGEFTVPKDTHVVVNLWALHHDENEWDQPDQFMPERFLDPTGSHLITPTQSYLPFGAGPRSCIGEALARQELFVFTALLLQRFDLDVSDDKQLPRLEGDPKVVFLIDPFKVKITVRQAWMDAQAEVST
Assay: Inhibition of rat testicular microsome CYP17 hydroxylase activity by HPLC/MS/MS method
Measured Metric: IC50 (µM)
Use µM as the unit, but write only the number.

Any idea what its IC50 is? The compound is COc1cc2ccc(C(O)(c3c[nH]cn3)C(C)C)cc2cc1OC (racemic) 0.14

----------
Assay: Metabolic stability in human liver microsomes assessed as compound remaining after 60 mins
Assay type: ADME
Conditions: read-out: Stability
Measured Metric: remaining at 1 h (%)
Only the number, expressed in %, is required.

• CC(C)C(O)(c1ccc2cc(OC(F)F)c(OC(F)F)cc2c1)c1c[nH]nn1 (racemic) = 54

Switching to the query record.
remaining at 1 h for COc1cc2ccc(C(O)(c3c[nH]nn3)C(C)C)cc2cc1OC (racemic) ? 29

----------
Biological target: Steroid 17-alpha-hydroxylase/17,20 lyase (Homo sapiens, UniProt P05093)
Sequence (P05093 whole entry): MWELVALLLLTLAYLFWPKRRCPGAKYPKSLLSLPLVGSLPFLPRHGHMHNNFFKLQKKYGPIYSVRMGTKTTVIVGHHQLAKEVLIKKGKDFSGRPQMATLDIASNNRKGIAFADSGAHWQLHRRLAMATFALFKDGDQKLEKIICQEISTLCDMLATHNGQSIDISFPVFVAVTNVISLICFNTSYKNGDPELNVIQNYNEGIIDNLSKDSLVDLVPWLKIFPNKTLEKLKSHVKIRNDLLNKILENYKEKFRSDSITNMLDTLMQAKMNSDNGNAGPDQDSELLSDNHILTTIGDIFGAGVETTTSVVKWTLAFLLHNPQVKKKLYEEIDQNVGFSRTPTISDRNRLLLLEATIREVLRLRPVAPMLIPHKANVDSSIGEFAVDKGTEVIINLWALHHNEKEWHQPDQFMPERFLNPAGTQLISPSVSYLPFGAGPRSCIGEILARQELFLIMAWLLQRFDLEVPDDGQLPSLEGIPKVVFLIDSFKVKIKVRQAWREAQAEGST
Assay: Selectivity ratio of IC50 for human recombinant CYP17 hydroxylase activity to IC50 for human recombinant CYP17 lyase activity
Measured Metric: Ratio IC50

Answered cases to consult:
* CC(C)C(O)(c1ccc2cc(OCC(F)(F)F)c(OCC(F)(F)F)cc2c1)c1c[nH]nn1 (racemic) | 12
* CC(C)C(O)(c1ccc2cc(OCC(F)(F)F)ccc2c1)c1c[nH]nn1 (racemic) | 1.8
* CC(C)C(O)(c1ccc2cc(OC(F)F)ccc2c1)c1c[nH]nn1 (racemic) | 0.22
* CC(C)C(O)(c1ccc2cc(-c3cnco3)ccc2c1)c1c[nH]nn1 (racemic) | 14

Which measured Ratio IC50 value corresponds to CC(C)C(O)(c1ccc2cc(-c3cccs3)ccc2c1)c1c[nH]nn1 (racemic) ? < 3

Same again, this time with COc1cc2ccc(C(O)(c3c[nH]cn3)C(C)C)cc2cc1OC (racemic) 4.4

Query COc1cc2ccc(C(O)(c3c[nH]nn3)C(C)C)cc2cc1OC (racemic) next 13

Where these numbers come from: ChEMBL document CHEMBL3259743
